biological target: human recombinant Aurora B (Homo sapiens (Human)); assay: Aurora B Kinase Biochemical Assay (ADP-Glo); conditions: ratio of Aurora B IC50 to PLK4 IC50 (selectivity)
Sequence (Q96GD4 whole entry): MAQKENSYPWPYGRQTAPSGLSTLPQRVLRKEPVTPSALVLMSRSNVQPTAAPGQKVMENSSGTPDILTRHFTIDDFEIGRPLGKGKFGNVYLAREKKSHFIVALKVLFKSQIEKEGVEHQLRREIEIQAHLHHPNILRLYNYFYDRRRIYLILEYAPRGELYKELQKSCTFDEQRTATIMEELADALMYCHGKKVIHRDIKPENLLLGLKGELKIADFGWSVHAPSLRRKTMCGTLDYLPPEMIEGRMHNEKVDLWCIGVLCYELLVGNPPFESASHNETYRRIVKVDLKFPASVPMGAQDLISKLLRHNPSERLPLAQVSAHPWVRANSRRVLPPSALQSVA
Rule: label 1 for [Aurora B IC50 (nM)]/[PLK4 IC50 (nM)] not less than 500, label 0 for anything less.

Past entries and their recorded results:
Given the entry "COc1ccc2c(c1)[C@]1(C[C@H]1c1ccc3c(Nc4nc(C#N)nc(N5CCOCC5)c4OC)n[nH]c3c1)C(=O)N2" , answer whether its [Aurora B IC50 (nM)]/[PLK4 IC50 (nM)] meets or surpasses 500. label 1

Quick check: does "CCS(=O)(=O)c1cc(OC)c(Nc2n[nH]c3cc([C@@H]4C[C@@]45C(=O)Nc4ccc(OC)cc45)ccc23)cn1" have [Aurora B IC50 (nM)]/[PLK4 IC50 (nM)] greater than or equal to 500? label 1

Form field: [Aurora B IC50 (nM)]/[PLK4 IC50 (nM)] at least 500? Entry: COc1ccc2c(c1)[C@]1(C[C@H]1c1ccc3c(Nc4ccc([S+](C)[O-])nc4OC)n[nH]c3c1)C(=O)N2 (single isomer, unassigned) [Example 239] label 0

Answer whether [Aurora B IC50 (nM)]/[PLK4 IC50 (nM)] of "COc1ccc2c(c1)[C@]1(C[C@H]1c1ccc3c(Nc4nc(C5COC5)ncc4OC)n[nH]c3c1)C(=O)N2" is greater than or equal to 500. label 1

Others:
Given the entry COc1ccc2c(c1)[C@]1(C[C@H]1c1ccc3c(Nc4nc(C)nc5c4C(C)SC5)n[nH]c3c1)C(=O)N2 (single isomer, unassigned) , answer whether its [Aurora B IC50 (nM)]/[PLK4 IC50 (nM)] meets or surpasses 500. label 0

meta.source: patent US20230365537A1
